- test_system: human CXCR3 (N-delta 4) (Homo sapiens, UniProt P49682)
- Construct: CD8 leader (N); Flag tag; expressed in transfected cells; membrane preparation
- Sequence (P49682 5-368 limits assumed): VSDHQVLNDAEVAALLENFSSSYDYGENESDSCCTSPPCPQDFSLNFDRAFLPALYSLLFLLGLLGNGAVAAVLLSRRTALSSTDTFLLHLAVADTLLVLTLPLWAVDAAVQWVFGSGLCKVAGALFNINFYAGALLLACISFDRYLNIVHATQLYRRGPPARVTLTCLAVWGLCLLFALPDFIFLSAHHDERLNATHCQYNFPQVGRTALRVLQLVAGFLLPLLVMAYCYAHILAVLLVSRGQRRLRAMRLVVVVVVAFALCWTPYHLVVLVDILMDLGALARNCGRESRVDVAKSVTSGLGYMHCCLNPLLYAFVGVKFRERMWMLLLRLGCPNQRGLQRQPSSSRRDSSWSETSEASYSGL
- assay_method_text: Human CXCR3 (N-delta 4) Scintillation Proximity Assay (SPA), [125I] IP-10 binding
- reported_conditions: IC50 ratings; Ba/F3-hCXCR3 (N-delta 4) membranes, 25 pM [125I] IP-10; read-out: IC50
- From the text: The inventive compounds can readily be evaluated to determine activity at the CXCR3 receptors by known methods, such as, for example, development of a human CXCR3 (N-delta 4) Binding Assay. Cloning and Expression of Human CXCR3 (N-delta 4): The DNA encoding human CXCR3 was cloned by PCR using human genomic DNA (Promega, Madison, Wis.) as a template. […]
pIC50: −log10 of the molar value.
Would you kindly list pIC50 for each of these molecules?

pIC50 of CC[C@H]1CN(c2cc3c(cc2Cl)nc(NS(C)(=O)=O)n3S(C)(=O)=O)CCN1C1CCN(Cc2ccc(Cl)cc2F)CC1 on human CXCR3 (N-delta 4) (Homo sapiens, UniProt P49682)?
< 7.00

pIC50 of CCc1nc2nc(N3CCN(C4CCN(Cc5ccc(Cl)cc5F)CC4)[C@@H](CC)C3)c(Cl)nc2c(=O)n1CC on human CXCR3 (N-delta 4) (Homo sapiens, UniProt P49682)?
> 7.60

pIC50 of CC[C@H]1CN(c2nc3[nH]c(=O)[nH]c3nc2Cl)CCN1C1CCN([C@H](CO)c2ccc(Cl)cc2)CC1 on human CXCR3 (N-delta 4) (Homo sapiens, UniProt P49682)?
> 7.60

pIC50 of CC[C@H]1CN(c2nc3c(nc2Cl)C(=O)NCCN3)CCN1C1CCN(C(=O)c2ccc(Cl)nc2N)CC1 on human CXCR3 (N-delta 4) (Homo sapiens, UniProt P49682)?
7.00 to 7.60

pIC50 of CC[C@H]1CN(c2cc3[nH]cnc3cc2Cl)CCN1C1CCN(Cc2ccc(Cl)cc2F)CC1 [Compound 24] on human CXCR3 (N-delta 4) (Homo sapiens, UniProt P49682)?
7.00 to 7.60

pIC50 of CC[C@H]1CN(c2nc3[nH]c(=O)[nH]c3nc2Cl)CCN1C1CCN(C(=O)c2ccc(Cl)nc2N)CC1 on human CXCR3 (N-delta 4) (Homo sapiens, UniProt P49682)?
> 7.60

pIC50 of CC[C@H]1CN(c2cc3[nH]c(-c4ccccc4)nc3cc2Cl)CCN1C1CCN(Cc2ccc(Cl)cc2F)CC1 on human CXCR3 (N-delta 4) (Homo sapiens, UniProt P49682)?
< 7.00

pIC50 of CC[C@H]1CN(c2nc3[nH]c(=O)[nH]c3nc2Cl)CCN1C1CCN(C(=O)c2ccc(Cl)cc2)CC1 on human CXCR3 (N-delta 4) (Homo sapiens, UniProt P49682)?
7.00 to 7.60

pIC50 of CC[C@H]1CN(c2nc3ncn(CC)c(=O)c3nc2Cl)CCN1C1CCN(Cc2ccc(Cl)cc2)CC1 on human CXCR3 (N-delta 4) (Homo sapiens, UniProt P49682)?
7.00 to 7.60

pIC50 of CC[C@H]1CN(c2nc3[nH]c(=O)n(Cc4ccc(Cl)cc4C#N)c3nc2Cl)CCN1C1CCN(Cc2ccc(Cl)cc2C#N)CC1 on human CXCR3 (N-delta 4) (Homo sapiens, UniProt P49682)?
< 7.00

pIC50 of CC[C@H]1CN(c2nc3[nH]c(=O)n(C(=O)OC(C)(C)C)c3nc2Cl)CCN1C1CCN(Cc2ccc(Cl)cc2)CC1 on human CXCR3 (N-delta 4) (Homo sapiens, UniProt P49682)?
> 7.60

pIC50 of CC[C@H]1CN(c2cc3[nH]c(=S)[nH]c3cc2Cl)CCN1C1CCN(Cc2ccc(Cl)cc2F)CC1 on human CXCR3 (N-delta 4) (Homo sapiens, UniProt P49682)?
< 7.00

pIC50 of CC[C@H]1CN(c2nc3c(nc2Cl)CN/C(=N\C#N)N3)CCN1C1CCN(Cc2ccc(Cl)cc2F)CC1 on human CXCR3 (N-delta 4) (Homo sapiens, UniProt P49682)?
> 7.60

pIC50 of CC[C@H]1CN(c2nc3c(nc2Cl)[nH]c(=O)n3Cc2ccc(Cl)cc2C#N)CCN1C1CCN(Cc2ccc(Cl)cc2C#N)CC1 on human CXCR3 (N-delta 4) (Homo sapiens, UniProt P49682)?
7.00 to 7.60

pIC50 of CC[C@H]1CN(c2nc3c(nc2Cl)CNC(=O)N3)CCN1C1CCN(Cc2ccc(Cl)cc2F)CC1 on human CXCR3 (N-delta 4) (Homo sapiens, UniProt P49682)?
> 7.60

pIC50 of CCc1nc2nc(N3CCN(C4CCN(Cc5ccc(Cl)cc5F)CC4)[C@@H](CC)C3)c(O)nc2c(=O)n1CC on human CXCR3 (N-delta 4) (Homo sapiens, UniProt P49682)?
< 7.00

pIC50 of CC[C@H]1CN(c2cc3[nH]c(=O)c(=O)[nH]c3cc2Cl)CCN1C1CCN(Cc2ccc(Cl)cc2F)CC1 on human CXCR3 (N-delta 4) (Homo sapiens, UniProt P49682)?
< 7.00

pIC50 of CC[C@H]1CN(c2cc3[nH]c(C(F)(F)F)nc3cc2Cl)CCN1C1CCN(Cc2ccc(Cl)cc2F)CC1 on human CXCR3 (N-delta 4) (Homo sapiens, UniProt P49682)?
> 7.60

pIC50 of CC[C@H]1CN(c2nc3c(nc2Cl)C(=O)NCCNC(=O)N3)CCN1C1CCN(C(=O)c2ccc(Cl)nc2N)CC1 on human CXCR3 (N-delta 4) (Homo sapiens, UniProt P49682)?
< 7.00

pIC50 of CC[C@H]1CN(c2cc3[nH]cnc3cc2Cl)CCN1C1CCN(Cc2ccc(Cl)cc2F)CC1 [Compound 25] on human CXCR3 (N-delta 4) (Homo sapiens, UniProt P49682)?
< 7.00
